# assaySystem: Cytochrome P450 2C9 (Homo sapiens) (UniProt P11712)
# Sequence (P11712 whole entry, looked up): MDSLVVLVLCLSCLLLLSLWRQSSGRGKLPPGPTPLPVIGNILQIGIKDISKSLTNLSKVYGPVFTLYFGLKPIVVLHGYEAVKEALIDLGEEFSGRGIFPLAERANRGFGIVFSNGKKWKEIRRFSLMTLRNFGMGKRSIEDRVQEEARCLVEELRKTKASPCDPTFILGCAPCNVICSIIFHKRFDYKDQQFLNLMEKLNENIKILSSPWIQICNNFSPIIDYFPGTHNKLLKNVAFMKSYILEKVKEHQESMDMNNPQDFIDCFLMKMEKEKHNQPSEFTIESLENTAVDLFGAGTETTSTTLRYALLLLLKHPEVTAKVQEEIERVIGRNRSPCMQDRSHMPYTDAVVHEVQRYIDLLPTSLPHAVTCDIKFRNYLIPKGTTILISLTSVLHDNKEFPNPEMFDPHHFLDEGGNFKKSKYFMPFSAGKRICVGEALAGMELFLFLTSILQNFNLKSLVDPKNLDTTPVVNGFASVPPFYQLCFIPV
# methodSummary: Cytochrome panel assay with activity outcomes; further: on the % scale 0 is the no-effect control and ±100 the full control effect
# conditionNotes: recombinant CYP, pro-luciferin dealkylation, luminescence, p450-cyp2c9; series mostly up to 57.1 µM
Screen size: about 16,000 compounds; about 4,000 (25%) were called active. About 26% were inconclusive and are not listed. The list is a sample of the results.
endpointName: activity, negative = inhibition

Cc1ccccc1-c1nccc(NCc2cccnc2)n1 = -17.5% [at 2.29 µM] (inactive)

For the 2 molecules below, give their activity, negative = inhibition values.
1. CN(C)C(=O)c1ccc(-c2nccc(NCc3cccnc3)n2)cc1
2. O=C1[C@H]2[C@H]3[C@H](O)[C@H](O)C/C(=N/OCc4ccccc4)[C@@H]3CC[C@@H]2C(=O)N1Cc1ccc2c(c1)OCO2

1. 5.1% [at 2.29 µM] (inactive)
2. -27.6% [at 11.4 µM] (inactive)

For the 4 molecules below, give their activity, negative = inhibition values.
1. CO[C@@H]1COC(=O)[C@@H](CCSC)NC(=O)C/C=C\[C@@H](C)COC(=O)[C@H](C)NC(=O)C/C=C\[C@H]1C
2. CC(C)=CCC/C(C)=C/CO/N=C1/C[C@@H](O)[C@@H](O)[C@@H]2[C@@H]3C(=O)N(Cc4ccccc4)C(=O)[C@H]3CC[C@H]12
3. c1csc(CNc2ccnc(-c3ccoc3)n2)c1
4. CCN1C(=O)[C@H]2[C@H]3[C@H](O)[C@H](O)C/C(=N/NC(=O)OCc4ccccc4)[C@@H]3CC[C@@H]2C1=O

1. 10% [at 11.4 µM] (inactive)
2. -1.37% [at 11.4 µM] (inactive)
3. -25.1% [at 2.29 µM] (inactive)
4. -4.03% [at 11.4 µM] (inactive)

Given CC(C)=CCC/C(C)=C/CO/N=C1/C[C@@H](O)[C@@H](O)[C@@H]2[C@@H]3C(=O)N(Cc4ccccc4)C(=O)[C@H]3CC[C@@H]12 , state its recorded activity, negative = inhibition. 24.4% [at 11.4 µM] (inactive)
